Assay: growth inhibitors of H69AR lung tumor, primary screen, human, duplicate replicates (AID 580);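 note: 100% = mean luminescence of untreated wells and 0% = no signal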
Settings: H69AR lung tumor cells viability, ATP luminescence, 72 h; at 10 µM; hits give low values
Decide using viability alone. Strictly below 90%: Fulfilled. Equal to or above 90%: Not fulfilled.

>  <Compound>
COC(=O)c1sccc1NC(=O)c1ccncc1

>  <Category Label>
Fulfilled

$$$$

hey, is viability for CN1CCc2c(sc3c2c(=O)n(-c2cccc(Cl)c2)c2nncn32)C1 lower than 90% or not?
Not fulfilled

hey, is viability for C=CCNc1nc2c(c(=O)n(C)c(=O)n2C)n1CCCCCC lower than 90% or not?
Fulfilled

hey, is viability for CC(NCCc1ccc(O)cc1)C(O)c1ccc(O)cc1 (stereo unspecified) lower than 90% or not?
Not fulfilled

hey, is viability for CC(C)(C)NCC(O)COc1cccc2c1C[C@H](O)[C@H](O)C2 (stereo partly specified) lower than 90% or not?
Not fulfilled

hey, is viability for COCCNC(=O)c1c(N)n(/N=C/c2cccs2)c2nc3ccccc3nc12 lower than 90% or not?
Fulfilled

hey, is viability for COC(=O)c1ccc(CSc2nnnn2Cc2ccccc2)cc1 lower than 90% or not?
Fulfilled

hey, is viability for CC(C)C[C@H](NC(=O)Nc1cccc(C(F)(F)F)c1)C(=O)O lower than 90% or not?
Not fulfilled

---

Experiment: SK-BR-3 cell growth inhibitors, pilot screen, 24 h, human (AID 572);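 note: compound exposure lasted between 18 and 24 h rather than exactly 24 h; 100% = carrier-treated control wells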
Conditions: SK-BR-3 viability, CellTiter-Glo luminescence, at 10 µM, hits give low values
Endpoint Name: viability (%)
Answers are plain numbers, in %.

Answered cases to consult:
>  <Compound>
CC(=O)CCc1ccc(OCCCCn2cncn2)cc1

>  <viability [%]>
113

$$$$
>  <Compound>
Cc1nnc(SC(=O)N2c3ccccc3Sc3ccccc32)s1

>  <viability [%]>
114

$$$$
>  <Compound>
CCOC(=O)N1CCC(NC(=O)Cc2ccc(-n3c(=O)[nH]c4ccccc4c3=O)cc2)CC1

>  <viability [%]>
103

$$$$

Take each entry in turn and give its viability.
1. COc1ccc(Nc2nc(Nc3ccc(OC)cc3)nc(-n3[nH]c(=O)c(C)c3C)n2)cc1
2. c1ccc(CSCc2cn3ccsc3n2)cc1
3. COc1cccc(N2C(=O)N(c3ccccc3Cl)C3CS(=O)(=O)CC32)c1 (stereo not drawn)
4. CCn1c(CNc2ccc(OC)cc2)nnc1SCC(=O)c1ccc(OC)cc1
5. Cc1cccc(NC(=O)CSc2nnc(-c3ccccc3C)o2)c1

79
93.5
93
110
87

Take each entry in turn and give its viability.
1. Nc1cccc(C(=O)O)c1
2. O=c1[nH]c2cc3c(cc2cc1C(c1nnnn1Cc1ccccc1)N1CCCc2ccccc21)OCO3 (stereo not drawn)
3. Nc1nnnn1NCc1cccc(OCc2ccccc2)c1
4. COC(=O)C1=C(C)NC(C)=C(C(=O)OC)C1c1ccccc1[N+](=O)[O-]
5. O=C(Nc1ccc2oc(Cc3ccc(Cl)cc3)nc2c1)c1cccnc1

[129, 98.5, 112, 91, 103]

Take each entry in turn and give its viability.
1. CC(=O)c1c(C)[nH]c(C(=O)OCc2nnc(-c3ccccc3)o2)c1C
2. COc1ccc(NC(=O)c2oc3ccc(S(=O)(=O)N4CCC5(CC4)OCCO5)cc3c2C)cc1
3. CC(=O)Nc1ccc(Cc2ccncc2)cc1
4. O=c1[nH]c(=O)n([C@H]2C[C@H](O)[C@@H](CO)O2)cc1F
5. COCCn1c(C)c(C(=O)O)sc1=S
6. O=C(CSc1oc(-c2ccco2)nc1S(=O)(=O)c1ccccc1)NCC1CCCO1 (stereo not drawn)

1: 92; 2: 87.5; 3: 105; 4: 89; 5: 99; 6: 97
